Entry source: patent US20260070929A1

test system: AGS gastric carcinoma cells [heterozygous G12D]; assay: Cancer cell line proliferation (CellTiter-Glo), AGS; type: cell-based; conditions: Homo sapiens, 72 hr treatment, read-out: AGS CTG (EC50)
pEC50: −log10 of the molar value.
measurement type: pEC50

Just so you know, measured pEC50 for `CCNC(=O)c1nnc(-c2cc(C(C)C)c(O)cc2O)n1-c1ccc(CN2CCC(CN3CCN([C@H]4C[C@@H](COc5nc(N6CC7CCC(C6)N7)c6cnc(-c7cccc(F)c7C)c(F)c6n5)N(C)C4)CC3)CC2)cc1` came out at > 7.00

Looking up `CC(C)c1cc(-c2nnc(O)n2-c2ccc(CN3CCN([C@H]4C[C@@H](COc5nc(N6CC7CCC(C6)N7)c6cnc(-c7cccc8ccccc78)c(F)c6n5)N(C)C4)CC3)cc2)c(O)cc1O` , I see its pEC50 listed as 6.00 to 7.00

Entry C#Cc1c(F)ccc2cc(O)cc(-c3nc(OC)c4c(N5CC6CCC(C5)N6)nc(OCC5(CN6CCN(C7CCN(Cc8ccc(-n9c(C(=O)NC(C)C(F)(F)F)nnc9-c9cc(C(C)C)c(O)cc9O)cc8)CC7)CC6)CC5)nc4c3F)c12 (stereo not drawn) — recorded pEC50 = > 7.00

Measured pEC50 of `C#Cc1cccc2cccc(-c3ncc4c(N5CC6CCC(C5)N6)nc(OC[C@@H]5C[C@H](CN6CCN(Cc7ccc8c(c7)CN(C(=O)c7cc(C(C)C)c(O)cc7O)C8)CC6)CN5C)nc4c3F)c12` : 6.00 to 7.00

pEC50 in this record for C#Cc1c(F)ccc2cc(O)cc(-c3ncc4c(N5CC6CCC(C5)N6)nc(OC5CN(Cc6ccc(-n7c(C(=O)NC(C)C(F)(F)F)nnc7-c7cc(C(C)C)c(O)cc7O)cc6)C5)nc4c3F)c12 (stereo not drawn) : 6.00 to 7.00

pEC50 reading for `C#Cc1cccc2cccc(-c3ncc4c(N5CC6CCC(C5)N6)nc(OC[C@@H]5CC[C@H](CN6CCN(Cc7ccc(-n8c(O)nnc8-c8cc(C(C)C)c(O)cc8O)cc7)CC6)N5C)nc4c3F)c12` : 6.00 to 7.00

`C#Cc1cccc2cc(O)cc(-c3ncc4c(N5CC6CCC(C5)N6)nc(OC[C@@H]5C[C@H](CN6CCN(Cc7ccc(-n8c(C(=O)NCC(F)(F)F)nnc8-c8cc(C(C)C)c(O)cc8O)cc7)CC6)CN5C)nc4c3F)c12` yielded pEC50 of > 7.00

So, `C#Cc1c(F)ccc2cc(O)cc(-c3ncc4c(N5CC6CCC(C5)N6)nc(OCC5CN(Cc6ccc(-n7c(C(=O)NCC(F)(F)F)nnc7-c7cc(C(C)C)c(O)cc7O)cc6)C5)nc4c3F)c12` ? Its pEC50 was 6.00 to 7.00

Record summary for `C#Cc1c(F)ccc2cc(O)cc(-c3ncc4c(N5CC6CCC(C5)N6)nc(OC5CN(Cc6ccc(-n7c(C(=O)NCC(F)(F)F)nnc7-c7cc(C(C)C)c(O)cc7O)cc6)C5)nc4c3F)c12` : reported pEC50 = 6.00 to 7.00

`C#Cc1cccc2cc(O)cc(-c3ncc4c(N5CC6CCC(C5)N6)nc(OCC5(CN6CCN(CC7CCN(Cc8ccc(-n9c(C(=O)NCC)nnc9-c9cc(C(C)C)c(O)cc9O)cc8)CC7)CC6)CC5)nc4c3F)c12` has a reported pEC50 of > 7.00

The reported value for `CC(C)c1cc(C(=O)N2Cc3ccc(CN4CCC(C(=O)N5CCN(C[C@H]6C[C@@H](COc7nc(N8CC9CCC(C8)N9)c8cnc(-c9cc(O)cc%10ccccc9%10)c(F)c8n7)N(C)C6)CC5)CC4)cc3C2)c(O)cc1O` in terms of pEC50 is < 6.00

The recorded pEC50 for entry `CCNC(=O)c1nnc(-c2cc(C(C)C)c(O)cc2O)n1-c1ccc(CN2CCC(C(=O)N3CCN([C@H]4C[C@@H](COc5nc(N6CC7CCC(C6)N7)c6cnc(-c7cccc8cccc(C)c78)c(F)c6n5)N(C)C4)CC3)CC2)cc1` equals > 7.00

Kindly note the recorded pEC50 for `CC(C)c1cc(C(=O)N2Cc3ccc(CN4CCC(C(=O)N5CCN([C@H]6C[C@@H](COc7nc(N8CC9CCC(C8)N9)c8cnc(-c9cccc%10cccc(F)c9%10)c(F)c8n7)N(C)C6)CC5)CC4)cc3C2)c(O)cc1O` , which is 6.00 to 7.00

Looking up C#Cc1cccc2cc(O)cc(-c3ncc4c(N5CC6CNC(C6)C5)nc(OCC5(CN6CCN(CC7CCN(Cc8ccc9c(c8)CN(C(=O)c8cc(C(C)C)c(O)cc8O)C9)CC7)CC6)CC5)nc4c3F)c12 (stereo not drawn) , I found its pEC50 recorded as 6.00 to 7.00

Note to self: pEC50 recorded for `CCNC(=O)c1nnc(-c2cc(C(C)C)c(O)cc2O)n1-c1ccc(CN2CCC(C(=O)N3CCN([C@H]4C[C@@H](COc5nc(N6CC7CCC(C6)N7)c6cnc(-c7ccccc7C(F)(F)F)c(F)c6n5)N(C)C4)CC3)CC2)cc1` was > 7.00

Given item `C#Cc1c(F)ccc2cc(O)cc(-c3ncc4c(N5CC6CCC(C5)N6)nc(OCC5(CN6CC(CN(C)CCOc7ccc8c(c7)CN(C(=O)c7cc(C(C)C)c(O)cc7O)C8)C6)CC5)nc4c3F)c12` , the value recorded as its pEC50 is 6.00 to 7.00

Reported pEC50 of `C#Cc1cccc2cc(O)cc(-c3ncc4c(N5CC6CCC(C5)N6)nc(OC[C@@H]5C[C@H](CN6CCN(Cc7ccc(-n8c(C(=O)NCC)nnc8-c8cc(C(C)C)c(O)cc8O)cc7)CC6)CN5C)nc4c3F)c12` : 6.00 to 7.00

Summary for this molecule, `CC(C)c1cc(C(=O)N2Cc3ccc(CN4CCC(C(=O)N5CCN(C[C@H]6CC[C@@H](COc7nc(N8CC9CCC(C8)N9)c8cnc(-c9cc(O)cc%10ccccc9%10)c(F)c8n7)N6C)CC5)CC4)cc3C2)c(O)cc1O` : pEC50 is 6.00 to 7.00
